Numbers sourced from PubChem BioAssay (NCI).

Tested on: K-562 leukemia
MEASUREMENT NOTES: NCI-60 one-dose screen, 48 h (100 = growth as untreated, 0 = no growth, -100 = all killed)
MEASUREMENT CONDITIONS: 10 µM unless noted
About 83,000 compounds went through this panel and 20% of them were active in at least one assay; those are over-represented in the sample as a whole.

COMPOUND: COc1cccc(-c2nc3sccn3c2-c2ccnc(NCCNC(=O)Nc3cccc(C(F)(F)F)c3)n2)c1
ASSAY TARGET: K-562 leukemia
growth / %: 39.9

COMPOUND: CNC(=O)NN
ASSAY TARGET: K-562 leukemia
growth / %: 109

COMPOUND: COc1cc(/C=C/C(=O)c2c(C)[n+]([O-])c3ccccc3[n+]2[O-])ccc1O
ASSAY TARGET: K-562 leukemia
growth / %: 85.2

COMPOUND: CCc1ccc(C2=C/C(=C/c3ccc(Cl)cc3)C(=O)N2CCc2ccc(S(N)(=O)=O)cc2)cc1
ASSAY TARGET: K-562 leukemia
growth / %: 11

COMPOUND: COc1cc(NC(C)CCCN2C(=O)c3ccccc3C2=O)c2ncccc2c1OC (configuration not stated)
ASSAY TARGET: K-562 leukemia
growth / %: 71.3

COMPOUND: Oc1ccc(O)c(-[n+]2ccccc2)c1
ASSAY TARGET: K-562 leukemia
growth / %: 107

COMPOUND: C=CC(=O)NC(=O)Nc1ccccc1Cl
ASSAY TARGET: K-562 leukemia
growth / %: 41.2

COMPOUND: CC(Cl)(CCl)CS(=O)(=O)c1ccc(Cl)cc1 (configuration not stated)
ASSAY TARGET: K-562 leukemia
growth / %: 105

COMPOUND: CCC1S/C(=N\N=C(/C)c2ccco2)N(c2ccccc2)C1=O (configuration not stated)
ASSAY TARGET: K-562 leukemia
growth / %: 120

COMPOUND: CC1(C)N=C(N)N=C(N)N1c1ccc(OCC(=O)Nc2ccccc2)c(Cl)c1
ASSAY TARGET: K-562 leukemia
growth / %: 18.5

COMPOUND: OCCOCC(F)(F)F
ASSAY TARGET: K-562 leukemia
growth / %: 97.2

COMPOUND: Cc1cccc(NC(=O)CCc2ccc(N3C(N)=NC(N)=NC3(C)C)cc2)c1
ASSAY TARGET: K-562 leukemia
growth / %: 23.3
